Readings of IC50 for the listed molecules
biological target: human factor XIa (Homo sapiens); construct: purchased Kordia; experiment: Measurement of FXIa inhibition (fluorogenic peptide substrate, AMC cleavage); type: biochemical; details: factor XIa from Kordia 0.45 nM; substrate Boc-Glu(OBzl)-Ala-Arg-AMC; 30 min at 22° C.
Sequence (P03951 388-625 limits assumed): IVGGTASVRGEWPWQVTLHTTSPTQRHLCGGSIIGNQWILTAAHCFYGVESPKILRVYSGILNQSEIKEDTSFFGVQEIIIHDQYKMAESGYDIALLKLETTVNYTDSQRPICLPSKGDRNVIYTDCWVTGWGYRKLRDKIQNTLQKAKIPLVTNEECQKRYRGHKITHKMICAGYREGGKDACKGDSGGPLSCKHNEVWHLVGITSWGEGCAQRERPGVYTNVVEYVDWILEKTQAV
Sequence (P03951 19-387 partner limits assumed): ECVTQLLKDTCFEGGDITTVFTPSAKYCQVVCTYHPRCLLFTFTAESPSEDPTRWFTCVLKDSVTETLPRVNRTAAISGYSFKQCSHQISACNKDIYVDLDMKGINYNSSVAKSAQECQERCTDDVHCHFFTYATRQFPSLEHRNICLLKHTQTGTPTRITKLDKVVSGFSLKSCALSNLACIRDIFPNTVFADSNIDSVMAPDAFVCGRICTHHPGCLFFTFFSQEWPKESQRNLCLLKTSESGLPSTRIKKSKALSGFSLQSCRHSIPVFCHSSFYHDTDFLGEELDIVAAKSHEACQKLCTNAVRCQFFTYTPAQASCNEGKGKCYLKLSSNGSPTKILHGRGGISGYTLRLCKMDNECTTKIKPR

[
  {
    "molecule": "N#Cc1ccc(Cl)cc1-c1cc(=O)n(C(Cc2cnco2)C(=O)Nc2ccc(C(N)=O)c(F)c2)cc1OC(F)F (stereo not shown)",
    "unit spec": "nM",
    "IC50": 240
  },
  {
    "molecule": "COc1cn(C(Cc2noc(C)n2)C(=O)Nc2ccc(C(N)=O)c(F)c2)c(=O)cc1-c1cc(Cl)ccc1C#N (racemic)",
    "unit spec": "nM",
    "IC50": 15
  },
  {
    "molecule": "COc1cn(C(Cc2cnco2)C(=O)Nc2ccc(C(N)=O)c(F)c2)c(=O)cc1-c1cc(Cl)ccc1C#N (single isomer, unassigned) [Example 45]",
    "unit spec": "nM",
    "IC50": 6.4
  },
  {
    "molecule": "COc1cn(C(Cc2cocn2)C(=O)Nc2ccc(C(N)=O)c(F)c2)c(=O)cc1-c1cc(Cl)ccc1C#N (stereo not shown)",
    "unit spec": "nM",
    "IC50": 43
  }
]
